Experiment: Selectivity index, ratio of IC50 for CDK2 (unknown origin) to CDK1 (unknown origin)
Answer each item with its documented Ratio IC50.

[Q] Reported Ratio IC50, molecule COc1ccc(NC(=O)N2CCN(c3nnc(Cc4ccccc4)c4ccccc34)CC2)cc1 : ____
[A] 1.63

[Q] Reported Ratio IC50, molecule COc1ccc(NC(=S)N2CCN(c3nnc(Cc4ccccc4)c4ccccc34)CC2)cc1 : ____
[A] 2.43

[Q] Reported Ratio IC50, molecule O=C(Nc1ccccc1)N1CCN(c2nnc(Cc3ccccc3)c3ccccc23)CC1 : ____
[A] 5.31

[Q] Reported Ratio IC50, molecule COc1ccc(Cc2nnc(N3CCN(C(=S)Nc4ccc(OC)cc4)CC3)c3ccccc23)cc1 : ____
[A] 4.7

[Q] Reported Ratio IC50, molecule O=C(Nc1ccc(Cl)cc1)N1CCN(c2nnc(Cc3ccccc3)c3ccccc23)CC1 : ____
[A] 1.76

[Q] Reported Ratio IC50, molecule COc1ccc(C(=O)N2CCN(c3nnc(Cc4ccccc4)c4ccccc34)CC2)cc1 : ____
[A] 3.62

[Q] Reported Ratio IC50, molecule COc1cccc(NC(=S)N2CCN(c3nnc(Cc4ccccc4)c4ccccc34)CC2)c1 : ____
[A] 4.82

[Q] Reported Ratio IC50, molecule S=C(Nc1ccc(Cl)cc1)N1CCN(c2nnc(Cc3ccccc3)c3ccccc23)CC1 : ____
[A] 3.13

[Q] Reported Ratio IC50, molecule COc1ccc(Cc2nnc(N3CCN(C(=O)Nc4ccc(OC)cc4)CC3)c3ccccc23)cc1 : ____
[A] 6.63

[Q] Reported Ratio IC50, molecule S=C(Nc1ccccc1)N1CCN(c2nnc(Cc3ccccc3)c3ccccc23)CC1 : ____
[A] 3.42

[Q] Reported Ratio IC50, molecule O=C(c1ccc(Cl)cc1)N1CCN(c2nnc(Cc3ccccc3)c3ccccc23)CC1 : ____
[A] 1.21

[Q] Reported Ratio IC50, molecule S=C(Nc1cccc(Cl)c1)N1CCN(c2nnc(Cc3ccccc3)c3ccccc23)CC1 : ____
[A] 14

[Q] Reported Ratio IC50, molecule COc1ccc(Cc2nnc(N3CCN(C(=O)c4ccccc4)CC3)c3ccccc23)cc1 : ____
[A] 5

[Q] Reported Ratio IC50, molecule COc1ccc(Cc2nnc(N3CCN(C(=O)Nc4ccc(Cl)c(C(F)(F)F)c4)CC3)c3ccccc23)cc1 : ____
[A] 8.29

[Q] Reported Ratio IC50, molecule COc1ccc(Cc2nnc(N3CCN(C(=S)Nc4ccc(Cl)cc4)CC3)c3ccccc23)cc1 : ____
[A] 10.8

[Q] Reported Ratio IC50, molecule COc1ccc(Cc2nnc(N3CCN(C(=S)Nc4ccccc4)CC3)c3ccccc23)cc1 : ____
[A] 6.16

[Q] Reported Ratio IC50, molecule COc1ccc(Cc2nnc(N3CCN(C(=S)Nc4cccc(Cl)c4)CC3)c3ccccc23)cc1 : ____
[A] 4.47

[Q] Reported Ratio IC50, molecule O=C(c1ccccc1)N1CCN(c2nnc(Cc3ccccc3)c3ccccc23)CC1 : ____
[A] 1.84

[Q] Reported Ratio IC50, molecule COc1ccc(Cc2nnc(N3CCN(C(=O)Nc4ccccc4)CC3)c3ccccc23)cc1 : ____
[A] 6.19

[Q] Reported Ratio IC50, molecule O=C(Nc1ccc(Cl)c(C(F)(F)F)c1)N1CCN(c2nnc(Cc3ccccc3)c3ccccc23)CC1 : ____
[A] 6.97

====

Target: Protein-tyrosine kinase 2-beta (Homo sapiens)
Sequence (Q14289 whole entry): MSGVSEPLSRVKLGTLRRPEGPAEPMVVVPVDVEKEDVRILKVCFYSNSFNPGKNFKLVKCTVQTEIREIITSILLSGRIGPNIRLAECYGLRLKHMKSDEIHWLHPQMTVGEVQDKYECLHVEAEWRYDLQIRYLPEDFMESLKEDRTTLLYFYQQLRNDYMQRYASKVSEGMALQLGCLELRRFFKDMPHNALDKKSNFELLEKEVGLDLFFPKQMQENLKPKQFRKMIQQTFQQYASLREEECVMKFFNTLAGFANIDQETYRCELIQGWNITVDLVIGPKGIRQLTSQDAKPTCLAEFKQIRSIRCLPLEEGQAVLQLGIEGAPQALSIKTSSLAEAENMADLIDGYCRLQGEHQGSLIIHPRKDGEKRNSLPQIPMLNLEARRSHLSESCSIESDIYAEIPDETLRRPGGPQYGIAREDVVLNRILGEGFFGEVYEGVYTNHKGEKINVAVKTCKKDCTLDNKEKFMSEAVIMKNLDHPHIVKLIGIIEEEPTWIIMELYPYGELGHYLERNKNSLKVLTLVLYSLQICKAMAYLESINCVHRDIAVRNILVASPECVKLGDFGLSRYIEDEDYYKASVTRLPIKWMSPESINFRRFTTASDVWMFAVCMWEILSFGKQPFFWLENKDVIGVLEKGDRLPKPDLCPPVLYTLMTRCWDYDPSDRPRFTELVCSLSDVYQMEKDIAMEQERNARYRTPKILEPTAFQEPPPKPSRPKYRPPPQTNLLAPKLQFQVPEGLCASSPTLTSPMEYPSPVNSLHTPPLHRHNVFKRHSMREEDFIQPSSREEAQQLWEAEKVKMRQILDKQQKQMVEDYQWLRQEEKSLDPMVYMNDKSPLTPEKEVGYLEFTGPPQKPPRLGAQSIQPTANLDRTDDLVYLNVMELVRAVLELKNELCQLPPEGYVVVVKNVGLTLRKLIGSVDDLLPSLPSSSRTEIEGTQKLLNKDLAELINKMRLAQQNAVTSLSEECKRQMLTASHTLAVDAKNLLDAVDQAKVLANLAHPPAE
experimental readout: IC50 (µM)
Field format: number, assumed µM, no unit text.

[Q] Reported IC50, molecule COc1ccc(Cc2nnc(N3CCN(C(=S)Nc4ccc(OC)cc4)CC3)c3ccccc23)cc1 : ____
[A] 3.66

[Q] Reported IC50, molecule COc1ccc(C(=O)N2CCN(c3nnc(Cc4ccccc4)c4ccccc34)CC2)cc1 : ____
[A] 6.38

[Q] Reported IC50, molecule COc1ccc(Cc2nnc(N3CCN(C(=S)Nc4ccc(Cl)cc4)CC3)c3ccccc23)cc1 : ____
[A] 2.37

[Q] Reported IC50, molecule COc1ccc(NC(=O)N2CCN(c3nnc(Cc4ccccc4)c4ccccc34)CC2)cc1 : ____
[A] 7.25

[Q] Reported IC50, molecule COc1ccc(Cc2nnc(N3CCN(C(=S)Nc4cccc(Cl)c4)CC3)c3ccccc23)cc1 : ____
[A] 8.95

[Q] Reported IC50, molecule O=C(Nc1ccc(Cl)c(C(F)(F)F)c1)N1CCN(c2nnc(Cc3ccccc3)c3ccccc23)CC1 : ____
[A] 2.68

[Q] Reported IC50, molecule O=C(Nc1ccc(Cl)cc1)N1CCN(c2nnc(Cc3ccccc3)c3ccccc23)CC1 : ____
[A] 1.33

[Q] Reported IC50, molecule O=C(c1ccccc1)N1CCN(c2nnc(Cc3ccccc3)c3ccccc23)CC1 : ____
[A] 3.57

[Q] Reported IC50, molecule S=C(Nc1cccc(Cl)c1)N1CCN(c2nnc(Cc3ccccc3)c3ccccc23)CC1 : ____
[A] 8.96
